Endpoint: MIC. System: M. avium 101. Items follow.

molecule: CCCCCCCCCCCCCCCOC(=O)c1cnc(Cl)cn1
MIC: > 16 µg/mL

molecule: CCCCCC(C)(CCCCC)OC(=O)c1cnc(Cl)cn1
MIC: > 64 µg/mL

molecule: CCCCCCC(C)(CCCCC)OC(=O)c1cnc(Cl)cn1 (stereo not drawn)
MIC: > 64 µg/mL
